target: Cannabinoid receptor 1 (Rattus norvegicus)
Sequence (P20272 whole entry): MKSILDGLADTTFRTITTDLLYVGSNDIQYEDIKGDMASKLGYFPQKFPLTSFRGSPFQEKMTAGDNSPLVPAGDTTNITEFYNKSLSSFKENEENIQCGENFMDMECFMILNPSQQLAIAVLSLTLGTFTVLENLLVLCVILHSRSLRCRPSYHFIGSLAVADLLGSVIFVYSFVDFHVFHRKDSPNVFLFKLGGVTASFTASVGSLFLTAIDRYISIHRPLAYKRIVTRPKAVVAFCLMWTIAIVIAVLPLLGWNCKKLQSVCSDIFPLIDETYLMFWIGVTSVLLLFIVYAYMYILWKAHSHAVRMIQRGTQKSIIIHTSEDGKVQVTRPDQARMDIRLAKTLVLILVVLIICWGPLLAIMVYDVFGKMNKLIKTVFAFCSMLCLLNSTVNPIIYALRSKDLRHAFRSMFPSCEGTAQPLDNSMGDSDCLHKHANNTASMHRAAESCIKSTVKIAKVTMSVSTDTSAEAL
assay-metric: pKi
In plain terms, pKi is the concentration in mol/L turned into minus its base-10 logarithm.

For Cannabinoid receptor 1 (Rattus norvegicus), provide pKi of `CCCCCCC1(c2cc(O)c3c(c2)OC(C)(C)[C@@H]2CCC(=O)C[C@@H]32)CCC1` please.
9.08

---

Record type: log10(Ki) measurement. Applies to: UniProtKB P34972
Sequence (P34972 whole entry): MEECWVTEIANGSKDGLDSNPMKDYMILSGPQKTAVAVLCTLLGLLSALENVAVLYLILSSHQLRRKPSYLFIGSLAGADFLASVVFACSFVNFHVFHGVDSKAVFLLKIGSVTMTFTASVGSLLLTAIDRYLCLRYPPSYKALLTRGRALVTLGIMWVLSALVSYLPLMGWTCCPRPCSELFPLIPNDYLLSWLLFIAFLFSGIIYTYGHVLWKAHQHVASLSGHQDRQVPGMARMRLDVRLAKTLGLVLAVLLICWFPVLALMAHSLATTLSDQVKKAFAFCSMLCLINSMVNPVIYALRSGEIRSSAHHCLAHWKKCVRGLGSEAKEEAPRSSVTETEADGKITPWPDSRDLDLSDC
log10 Ki, nM

Solved entries:
CCCCCCC1(c2cc(O)c3c(c2)OC(C)(C)[C@@H]2CC[C@@H](O)C[C@@H]32)CCC1
0.71
CC1(C)Oc2cc(C3(CCCCCBr)CCCC3)cc(O)c2[C@@H]2CC(=O)CC[C@H]21
0.12
CCCCCCC1(c2cc(O)c3c(c2)OC(C)(C)[C@@H]2CCC(=O)C[C@@H]32)CCCC1
0.52
CCCC/C=C\C1(c2cc(O)c3c(c2)OC(C)(C)[C@@H]2CCC(=O)C[C@@H]32)CCCC1
0.85

What log10(Ki) appears in the records for this compound with UniProtKB P34972? `CC1(C)Oc2cc(C3(CCCCCBr)CCC3)cc(O)c2[C@@H]2CC(=O)CC[C@H]21`
0.77

Record lookup: for UniProtKB P34972, what log10(Ki) belongs to `CCCCCCC1(c2cc(O)c3c(c2)OC(C)(C)[C@@H]2CCC(=O)C[C@@H]32)CCC1` ?
1.08

Recall the recorded log10(Ki) for `CC1(C)Oc2cc(C3(CCCCCCBr)CCCC3)cc(O)c2[C@@H]2CC(=O)CC[C@H]21` with UniProtKB P34972 and state it.
0.48

Provide the documented log10(Ki) with UniProtKB P34972 as the system for `CCCCCCC1(c2cc(O)c3c(c2)OC(C)(C)[C@@H]2CCC(=O)C[C@@H]32)SCCS1`
1.51

API: value(readout= log10(Ki), system= UniProtKB P34972, query= `CCCC/C=C\C1(c2cc(O)c3c(c2)OC(C)(C)[C@@H]2CCC(=O)C[C@@H]32)CCC1` )
1.18
